Assay: PAMPA (parallel artificial membrane permeability assay)
Type: in vitro ADME
Conditions: PAMPA; membrane permeation rate (Pe); 50 mM MOPSO buffer pH 6.5 with 5.0% glycocholic acid, 37° C., 18 hours; read-out: iPAMPA Pe
Experimental: 4 μL of a phospholipid-organic solvent solution composed of 10% (w/v) of egg lecithin, 0.5% (w/v) of cholesterol and dodecane (all purchased from Fluka) was added to a Millipore 96-well membrane filter (hydrophobic PVDF (polyvinylidene difluoride), pore size 0.45 microm) (purchased from Millipore Japan) to make an artificial phospholipid membrane. […]
Starred links: 1 amine or outer side, 2 acyl side, 3 side chain; linkers in the order of their positions; H or OH if unused. Positions of bridges follow the written chain, without caps; N, C: chain ends. Non-standard residues stand in square brackets, D forms with d. Residues, ends and D or L forms follow the SMILES beside them. *: point of attachment. NMeF = CN[C@@H](Cc1ccccc1)C(=O)O; NMeI = CC[C@H](C)[C@H](NC)C(=O)O; NMeβAla = CN(CCC(=O)[*:2])[*:1]; NMeL = CN[C@@H](CC(C)C)C(=O)O; NMeV = CN[C@H](C(=O)O)C(C)C; NMeA = CN[C@@H](C)C(=O)O; Piperidide = C1CCN(*)CC1; β3hA = C[C@H](N)CC(=O)O; Sar = CNCC(=O)O
Entries whose Papp at 18 hours, 50 µM is below 10 ×10⁻⁶ cm/s take condition met; entries at or above 10 ×10⁻⁶ cm/s take condition not met.

MOLECULE | ASSIGNED LABEL
CC[C@H](C)[C@@H]1NC(=O)[C@H](Cc2ccccc2)N(C)C(=O)[C@H](CC(C)C)N(C)C(=O)[C@H](Cc2ccccc2)NC(=O)[C@H]([C@@H](C)O)NC(=O)[C@H](CC(C)C)N(C)C(=O)[C@H](CC(C)C)NC(=O)CCN(C)C(=O)C[C@@H](C(=O)N2CCCCC2)NC(=O)[C@H](CC(C)C)N(C)C1=O [DP-336] ([NMeβAla]L[NMeL]TF[NMeL][NMeF]I[NMeL]D-Piperidide; lactam N-10) | condition not met
CC(C)C[C@H]1C(=O)N[C@@H](C(C)C)C(=O)N[C@H](C(=O)N(C)[C@@H](Cc2ccccc2)C(=O)N(C)[C@@H](Cc2ccccc2)C(=O)N[C@@H](C)C(=O)N2CCCCC2)CC(=O)N(C)CC(=O)N(C)[C@@H](CC(C)C)C(=O)N(C)[C@@H](Cc2ccccc2)C(=O)N[C@@H]([C@@H](C)O)C(=O)N(C)[C@@H](C)C(=O)N(C)CC(=O)N1C [DP-407] ([Sar][NMeL][NMeF]T[NMeA][Sar][NMeL]VD[NMeF][NMeF]A-Piperidide; lactam N-9) | condition not met
CC(C)C[C@@H]1NC(=O)[C@H](CC(C)C)N(C)C(=O)CN(C)C(=O)[C@H]([C@@H](C)O)NC(=O)[C@H](C)N(C)C(=O)C[C@@H](C(=O)N2CCCCC2)NC(=O)[C@H](Cc2ccccc2)N(C)C1=O [DP-744] ([NMeA]T[Sar][NMeL]L[NMeF]D-Piperidide; lactam N-7) | condition not met
CC(C)C[C@@H]1NC(=O)[C@H](CC(C)C)N(C)C(=O)[C@H](C)NC(=O)[C@H](C(C)C)N(C)C(=O)[C@H](Cc2ccccc2)NC(=O)CN(C)C(=O)[C@H]([C@@H](C)O)NC(=O)[C@H](C)N(C)C(=O)[C@H](CC(C)C)N(C)C(=O)[C@@H](C)NC(=O)C[C@H](C)NC1=O [DP-764] (cyclo(A[NMeL]L[β3hA][dA][NMeL][NMeA]T[Sar]F[NMeV])) | condition met
CC[C@H](C)[C@H]1C(=O)N(C)[C@@H](CC(C)C)C(=O)N[C@@H](Cc2ccccc2)C(=O)N[C@@H]([C@@H](C)O)C(=O)N[C@@H](CC(C)C)C(=O)N(C)[C@@H](Cc2ccccc2)C(=O)N(C)[C@@H](C(C)C)C(=O)N[C@H](C(=O)N(C)CC(=O)N[C@@H](C)C(=O)N2CCCCC2)CC(=O)N[C@H](C)C(=O)N[C@@H](C)C(=O)N1C [DP-672] ([dA]A[NMeI][NMeL]FTL[NMeF][NMeV]D[Sar]A-Piperidide; lactam N-10) | condition not met
